Test: NOD1 signaling inhibitors, primary screen, cell-based, luminescence, uHTS (AID 1578);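 also: HEK-293T reporter cells stimulated with the NOD1 agonist gamma-tri-DAP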
Details: NOD1-driven NF-kB luciferase reporter cells, at 4 µM
The campaign covered roughly 290,000 compounds. About 3,000 (1%) were called active. Rule as the data show it: active = inhibition mostly above about 36% (no sharp cut-off); inactive = mostly below about 34%. Only a selection was taken, and actives are over-represented in it overall.
Outcomes: active, inactive

- O=C(c1ccccc1)c1cncc(Br)c1: inactive
- Cc1ccc(NC(=O)c2cncc(Br)c2)nc1: inactive
- Cn1c(=O)c(C(=O)Nc2cnccn2)c(O)c2ccccc21: inactive
- Cc1ccc(C(=O)c2cncc(Br)c2)cc1: active
- CCc1ccc(C(=O)c2cncc(Br)c2)cc1: inactive
- O=C(O)CCCCCNCc1ccncc1: inactive
- CCn1c(=O)c(C(=O)Nc2cnccn2)c(O)c2ccccc21: inactive
- CCn1c(=O)c(C(=O)Nc2ccccc2S(N)(=O)=O)c(O)c2ccccc21: inactive
- Cc1ccc(NC(=O)c2cncc(Br)c2)c([N+](=O)[O-])c1: inactive
- COc1cc(/C=N/NC(=O)c2ccncc2)ccc1OC(=O)c1ccco1: inactive
- CCCn1c(=O)c(C(=O)Nc2cnccn2)c(O)c2ccccc21: inactive
- CC(C)Cn1c(=O)c(C(=O)Nc2cnccn2)c(O)c2ccccc21: inactive

----------
Test: NOD1 signaling inhibitors, primary screen, cell-based, luminescence, uHTS (AID 1578);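 also: HEK-293T reporter cells stimulated with the NOD1 agonist gamma-tri-DAP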
Settings: NOD1-driven NF-kB luciferase reporter cells, at 4 µM, active compounds read high
The whole screen tested about 290,000 compounds, of which about 3,000 (1%) were called active. This excerpt belongs to a sample that is enriched for actives.
Quick reference for inhibition among some compounds
Reported endpoint: inhibition (%)

• CC(NC(=S)Nc1ccc(OC(F)F)c(Cl)c1)C(C)(C)C (centres undefined) = -14.8
• c1ccc(-c2noc(-c3ccno3)n2)nc1 = -2.2
• COc1ccc(-c2nc(-c3ccccn3)no2)cc1 = 99
• CCCCOc1ccc(-c2[nH]ncc2C=O)cc1 = -46
• COc1cc(-c2nc(-c3ccccn3)no2)cc(OC)c1OC = -30.9
• COc1ccccc1-c1noc(CCCC(=O)N2CCOCC2)n1 = -3.7
• COc1ccc([N+](=O)[O-])cc1N(CC(=O)NCC1CCCO1)S(C)(=O)=O (centres undefined) = -19.1
• CCSC1=C(C#N)C(=O)n2c1cc1c2CCCC1 = 67
• COc1cc(OC)cc(C(=O)NC2CC(C)(C)NC(C)(C)C2)c1 = 83
• CCOC(=O)C1=C(SCC)c2cc3c(n2C1=O)CCCC3 = -36.8
• c1ccc(-c2noc(-c3ccc4c(c3)OCO4)n2)nc1 = 64.7
• c1ccc(-c2noc(-c3ccc4c(c3)OCO4)n2)cc1 = -47.3
• Cc1cc(C)cc(C(=O)NC2CC(C)(C)NC(C)(C)C2)c1 = -11.3
• Cc1ccc(N2CC(C(=O)NC3CC3)CC2=O)cc1 (centres undefined) = 17.9
• CCC(C)C(NC(=O)CCC(=O)OCC(=O)[C@@]1(O)CCC2[C@@H]3CCC4=CC(=O)C=C[C@]4(C)C3[C@@H](O)C[C@@]21C)C(=O)O (some centres undefined) = -4.9
• O=C(NCC1CCCO1)c1ccc(Oc2ccc([N+](=O)[O-])cc2)cc1 (centres undefined) = 42.4
• COc1cc(C(=O)NC2CC(C)(C)NC(C)(C)C2)cc(OC)c1OC = -31.3
• CN(C)Cc1ccc(CNC(=O)COc2ccc3ccccc3c2)cc1 = -35.8
• COc1cc(/C=C(\NC(C)=O)C(=O)NC(C)(C)CC(C)(C)C)ccc1OC(C)=O = -17.3
• N#CC1=C(N2CCCCC2)c2cc3c(n2C1=O)CCCC3 = 7.7
• Cc1cc(C(=O)NCC2COc3ccccc3O2)c2ccccc2n1 (centres undefined) = -14.4
• O=C(N/N=C/C=C\c1ccccc1[N+](=O)[O-])c1ccncc1 = -7.4
• CCN1CCN(CC(=O)c2c[nH]c3ccc(C)cc23)CC1 = -10.6
• CCN(CC)CC(=O)c1c[nH]c2ccc(C)cc12 = -11.4
